tested on: M14 melanoma; assay: NCI tumour cell line growth inhibition, 48 h
MEASURED_ATTRIBUTE: TGI (µM)
Give a bare numeral; the unit µM is implied.

Example entries and their recorded answers appear below.
C[C@]12CC[C@@H](OC(=O)N(CCCl)N=O)C[C@@H]1CC[C@@H]1[C@@H]2CC[C@]2(C)C(=O)CC[C@@H]12 :: 44.9
ClCc1ccc(C2OCCO2)cc1 :: 34.3

Fill in the blank: the reported TGI of "C/C(=N\NC(=S)N1CCN(c2ccccn2)CC1)c1nccs1" is ____. 1.49

Fill in the blank: the reported TGI of COc1cc(/C=C2\CC3C4CC=C5C[C@@H](O)CC[C@]5(C)C4CC[C@]3(C)C2=O)ccc1OCCCn1ccnc1 (some centres not stated) is ____. 33.3

Fill in the blank: the reported TGI of COC(=O)C(CC(=O)c1c[nH]c2ccccc12)c1c[nH]c2ccccc12 (configuration not stated) is ____. 41.9

Fill in the blank: the reported TGI of CCN(CC)CCCC(C)Nc1cc(-c2ccccc2)nc2cc(OC)ccc12 (configuration not stated) is ____. 3.52

Fill in the blank: the reported TGI of "CCCCCCNC(=O)Oc1ccc(/C(=C(/C)Cc2ccc(OC)cc2)c2ccc(OCCN(C)C)cc2)cc1" is ____. 11.5

###

system: NCI-H226 lung; experiment: NCI tumour cell line growth inhibition, 48 h
MEASURED_ATTRIBUTE: TGI (µM)
Give a bare numeral; the unit µM is implied.

C[PH+](c1nc2ccccc2nc1[PH+](C)C(C)(C)C)C(C)(C)C.C[PH+](c1nc2ccccc2nc1[PH+](C)C(C)(C)C)C(C)(C)C.[Au+].[Cl-] (stereo not given) :: 2.44
Cc1cc2nc(-c3c(N)ncc(C#N)c3-c3ccc(Cl)cc3)[nH]c2cc1C :: 46.3
C=CCCCCn1c2ccccc2c2c(C)c3cnccc3c(C)c21 :: 94.9

Now, please, on to the next compound.
Fill in the blank: the reported TGI of COc1ccc(C2SCC(=O)N2NC(=O)C(C)Oc2ccc(Cl)cc2Cl)cc1 (stereo not given) is ____. 33.6

###

system: OVCAR-4 ovarian; assay: NCI tumour cell line growth inhibition, 48 h
Reported TGI values follow for various compounds

Example entries and their recorded answers appear below.
C/C=C(/C)c1cnc(CC(C)C)c(=O)[nH]1 :: > 100 µM
Oc1c(CN2CCCC2)cc(CSCc2ccccc2)c2cccnc12 :: 2.47 µM
Nc1ccc(C(=O)CC2(O)C(=O)Nc3c(Cl)cc(Cl)cc32)cc1 (configuration not stated) :: > 100 µM
CC(C)(Cc1ccccc1)N1C(=O)N1C(C)(C)Cc1ccccc1 :: > 100 µM
O=C(CSc1nc(-c2ccccc2)c(-c2ccccc2)[nH]1)NNC(=S)Nc1ccccc1 :: > 100 µM
CC(/C=C/NNC1=NC(c2ccccc2)C(c2ccccc2)=NN1)Sc1ccccc1N (configuration not stated) :: 20 µM
CC(C)(CN1CCCCC1)C(/C=C/c1ccccc1)=N\NC(=O)N/N=C(/C=C/c1ccccc1)C(C)(C)CN1CCCCC1 :: 14.1 µM
O=C(O)CCSC1=NCCN1 :: > 100 µM
O=c1[nH]c2cc([N+](=O)[O-])c(Nc3c4ccccc4nc4ccccc34)c([N+](=O)[O-])c2[nH]1 :: 13.9 µM
NC(=O)c1csc(C2CCC(CO)O2)n1 (configuration not stated) :: > 100 µM

Find the measured TGI: item "O=C(O)COc1cc(-c2ccccc2)nc2ccccc12" , target or system OVCAR-4 ovarian. > 100 µM

Find the measured TGI: item CCOC(=O)c1c(-c2ccccc2)c(C(OC(c2ccccc2)c2c(-c3ccccc3)c(C(=O)OCC)n3ccccc23)c2ccccc2)c2ccccn12 (configuration not stated) , target or system OVCAR-4 ovarian. > 100 µM

Find the measured TGI: item "O=NN1CCCS1(=O)=O" , target or system OVCAR-4 ovarian. > 100 µM

Find the measured TGI: item "COc1cc(C)cc2c(-c3c(O)cc(O)c4c3C[C@H](C)N[C@H]4C)cc(-c3cc(-c4c(O)cc(O)c5c4C[C@H](C)N[C@H]5C)c4cc(C)cc(OC)c4c3O)c(O)c12" , target or system OVCAR-4 ovarian. > 100 µM

Find the measured TGI: item Clc1nc2c(C#Cc3ccccc3)ncnc2n1C1CCCCO1 (configuration not stated) , target or system OVCAR-4 ovarian. 35.9 µM

###

test system: M14 melanoma; experiment: NCI tumour cell line growth inhibition, 48 h
MEASURED_ATTRIBUTE: TGI (µM)
Give a bare numeral; the unit µM is implied.

Example entries and their recorded answers appear below.
CC(C)(CN1CCCCC1)C(/C=C/c1ccccc1)=N\NC(=O)N/N=C(/C=C/c1ccccc1)C(C)(C)CN1CCCCC1 :: 3.19
CC1CN=C(c2ccc(CN3CCC(C4CCN(Cc5ccc(C6=NCC(C)N6)cc5)CC4)CC3)cc2)N1 (stereo not given) :: 44
CSc1nsc(S/C=C\C(=O)c2ccc(C)cc2)n1 :: 30.8
C=CC(OC(C)=O)c1ccc(OC(C)=O)cc1 (stereo not given) :: 22.9
COc1cccc(C23CCCC(C2)N(C)CC3OC(=O)c2ccccc2)c1OC (stereo not given) :: 29.6

Fill in the blank: the reported TGI of "COc1ccc(NC(=O)n2nc(/C=C\c3ccc(O)c(OC)c3)cc2/C=C\c2ccc(O)c(OC)c2)cc1" is ____. 41.5

Fill in the blank: the reported TGI of C[PH+](c1nc2ccccc2nc1[PH+](C)C(C)(C)C)C(C)(C)C.C[PH+](c1nc2ccccc2nc1[PH+](C)C(C)(C)C)C(C)(C)C.[Au+].[Cl-] (stereo not given) is ____. 0.31

Fill in the blank: the reported TGI of "CCC[CH2][Sn]1([CH2]CCC)[O]C(=O)c2ccc(N)cc2[O]1" is ____. 2.18

Fill in the blank: the reported TGI of "CCCCNC(=O)Oc1ccc(/C(=C(/CC)Cc2ccccc2)c2ccc(OCCN3CCCCCC3)cc2)cc1" is ____. 33.9

###

system: LOX IMVI melanoma; experiment: NCI tumour cell line growth inhibition, 48 h; in the data active = GI50 below about 0.43 µM; inactive = the rest
Allowed answers: active, inactive

CCN(CC)CCOc1c(OC)c(Br)cc2c(C)c(C(=O)OC)oc12 :: inactive
CC1(C)[C@@H](OC(N)=O)C=C[C@]2(CO)[C@H]3CC[C@]4(C)[C@@H](c5ccc(=O)oc5)[C@@H](Cl)C[C@]4(O)C3=CC[C@@H]12 :: active
CCCCN(CC)c1ncnc2ccc(Br)cc12 :: inactive

Consider the additional molecule presented here.
Outcome logged for "C/C(=N\NC(=S)N1CCN(c2ccccn2)CC1)c1nccs1" in this assay: active

###

tested on: SF-539 CNS; assay: NCI tumour cell line growth inhibition, 48 h
MEASURED_ATTRIBUTE: TGI (µM)
Give a bare numeral; the unit µM is implied.

CC(C)(C)n1cc(-c2ccnc(NCCCNS(=O)(=O)c3ccc(Br)cc3)c2)c(-c2cccc(O)c2)n1 :: 3.17
COc1ccc(OC)c(C[P+](c2ccccc2)(c2ccccc2)c2ccccc2)c1 :: 39.2
CNCCNc1nc2ccccc2c2c(=O)c3cc(OC)ccc3sc12 :: 3.03
COc1ccc(N2C(=O)C3c4[nH]c5ccccc5c4C4CCCCCCC4C3C2=O)cc1 (stereo not given) :: 21.5

Now, please, on to the next molecule.
Fill in the blank: the reported TGI of "Clc1ccc2c(c1)C(N1CCNCC1)=Nc1ccccc1O2" is ____. 3.36

###

Reported GI50 values follow for various compounds
system: K-562 leukemia; assay: NCI tumour cell line growth inhibition, 48 h

C=C(C)[C@@H]1CC[C@]2(CO)CC[C@]3(C)[C@H](CC[C@@H]4[C@@](C)(CCCN)[C@H](C(=C)C)CC[C@]43C)[C@@H]12 :: 1.55 µM
COc1cc(/C=C2\CC3C4CC=C5C[C@@H](O)CC[C@]5(C)C4CC[C@]3(C)C2=O)ccc1OCCCn1ccnc1 (some centres undefined) :: 17.6 µM
COC(=O)c1ccc(CN2C(=O)C(Cl)=C(Nc3ccc(OC)c(Cl)c3)C2=O)cc1 :: 4.17 µM

Now, please, on to the next compound.
Fill in the blank: the reported GI50 of "Cc1nn(CNc2ccccc2C(F)(F)F)c(=S)n1/N=C/c1ccc(F)cc1" is ____. 89.4 µM

###

test system: OVCAR-5 ovarian; assay: NCI tumour cell line growth inhibition, 48 h
MEASURED_ATTRIBUTE: GI50

Example entries and their recorded answers appear below.
CCCCNC(=O)Oc1ccc(/C(=C(/CC)Cc2ccccc2)c2ccc(OCCN3CCCCCC3)cc2)cc1 :: 96.3 µM
CCOC(=O)Nc1nc2cc(OCC)ccc2s1 :: > 100 µM
COc1ccc(NC(=O)n2nc(/C=C\c3ccc(O)c(OC)c3)cc2/C=C\c2ccc(O)c(OC)c2)cc1 :: 18.8 µM
CC(C)(C)n1cc(-c2ccnc(NCCCNS(=O)(=O)c3ccc(Br)cc3)c2)c(-c2cccc(O)c2)n1 :: 1.87 µM
CS(=O)(=O)[O-].CS(=O)(=O)[O-].NC1CCCCC1N.[Pt+4] (centres undefined) :: > 100 µM

Fill in the blank: the reported GI50 of "CC[C@]1(O)C[C@@H]2CN(CCc3c([nH]c4ccccc34)[C@@](C(=O)OC)(c3cc4c(cc3OC)N(C)[C@H]3[C@@](O)(C(N)=O)[C@H](O)[C@]5(CC)[C@@H]6C[C@@H]6CN6CC[C@]43[C@@H]65)C2)C1" is ____. 0.0912 µM

Fill in the blank: the reported GI50 of "O=C(Nc1ccc(Br)cc1)Nc1nn(C(=O)Nc2ccc(Br)cc2)c2ccccc12" is ____. > 100 µM

Fill in the blank: the reported GI50 of "Cn1cc(C2=C(c3cn(C)c4cc(N)ccc34)C(=O)NC2=O)c2ccccc21" is ____. 8.13 µM

Fill in the blank: the reported GI50 of "C/C(=N\NC(=S)N1CCN(c2ccccn2)CC1)c1nccs1" is ____. 0.0544 µM
